So I've got a bunch of molecules here, and I need their pEC50 values.
Tested on: primary human fibroblasts derived from IPF patients (LL29 cells)
Test: Inhibition of the fibrotic process: αSMA staining in TGF-β1 treated LL29 fibroblasts
Format: cell-based
Conditions: Homo sapiens, Fibroblast, 96 h, TGF-β1 20 ng/mL, 4 days, % αSMA positive cells
Give bare numbers, as −log10 of the molar value.

c1ccc(-c2cccc3[nH]c(-c4n[nH]c5ncc(-c6cncnc6)cc45)cc23)nc1    5.30
CCNCc1cncc(-c2cnc3[nH]nc(-c4cc5c(-c6ccccc6F)cccc5[nH]4)c3c2)c1    6.00

Please give pEC50, item by item, for the list that follows.
1. CCC(=O)Nc1cncc(-c2cnc3[nH]nc(-c4cc5c(N6CCCCC6)cccc5[nH]4)c3c2)c1
2. CN(C)c1cncc(-c2cnc3[nH]nc(-c4cc5c(N6CCCCC6)cccc5[nH]4)c3c2)c1
3. c1ccc(-c2cccc3[nH]c(-c4n[nH]c5ncc(-c6cncc(CN7CCCC7)c6)cc45)cc23)nc1
4. c1ccc(CNCc2cncc(-c3cnc4[nH]nc(-c5cc6ncccc6[nH]5)c4c3)c2)cc1

RESULT:
[5.85, 5.79, 6.01, 5.51]

QUERY: Entry under review: `CN1CCN(c2cccc3[nH]c(-c4n[nH]c5ncc(-c6cncc(CN7CCCCC7)c6)cc45)cc23)CC1` . Reported pEC50?
RESULT: 5.76
